# IC50 measurements, system: Interstitial collagenase (Homo sapiens, UniProt P03956)
# Sequence (P03956 whole entry): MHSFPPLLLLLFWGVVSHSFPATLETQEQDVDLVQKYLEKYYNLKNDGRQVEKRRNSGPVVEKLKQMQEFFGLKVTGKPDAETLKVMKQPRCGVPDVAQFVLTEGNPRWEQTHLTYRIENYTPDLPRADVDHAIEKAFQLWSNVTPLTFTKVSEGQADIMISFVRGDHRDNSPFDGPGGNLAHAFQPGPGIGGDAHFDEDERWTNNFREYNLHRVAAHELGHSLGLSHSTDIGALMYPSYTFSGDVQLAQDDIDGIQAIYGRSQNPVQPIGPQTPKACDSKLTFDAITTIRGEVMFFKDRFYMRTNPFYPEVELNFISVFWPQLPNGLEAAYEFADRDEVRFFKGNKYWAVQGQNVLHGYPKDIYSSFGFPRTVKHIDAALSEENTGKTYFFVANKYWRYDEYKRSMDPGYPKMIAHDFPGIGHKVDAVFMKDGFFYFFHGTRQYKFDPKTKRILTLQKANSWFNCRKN
Numeric only. Scale: nM

Q. Quick one: IC50 for "CCCCCCC[C@H](C[C@H](O)CS)C(=O)N[C@H](C(=O)NC)C(C)(C)C" ?
A. 5

Q. Follow-up entry: "CNC(=O)[C@@H](NC(=O)[C@@H](CC(=O)NO)CC(C)C)C(C)(C)C"
A. 5

---

Consider the following molecules; for each one, report its pIC50.
Molecular target: Stromelysin-1 (Homo sapiens, UniProt P08254)
Sequence (P08254 whole entry): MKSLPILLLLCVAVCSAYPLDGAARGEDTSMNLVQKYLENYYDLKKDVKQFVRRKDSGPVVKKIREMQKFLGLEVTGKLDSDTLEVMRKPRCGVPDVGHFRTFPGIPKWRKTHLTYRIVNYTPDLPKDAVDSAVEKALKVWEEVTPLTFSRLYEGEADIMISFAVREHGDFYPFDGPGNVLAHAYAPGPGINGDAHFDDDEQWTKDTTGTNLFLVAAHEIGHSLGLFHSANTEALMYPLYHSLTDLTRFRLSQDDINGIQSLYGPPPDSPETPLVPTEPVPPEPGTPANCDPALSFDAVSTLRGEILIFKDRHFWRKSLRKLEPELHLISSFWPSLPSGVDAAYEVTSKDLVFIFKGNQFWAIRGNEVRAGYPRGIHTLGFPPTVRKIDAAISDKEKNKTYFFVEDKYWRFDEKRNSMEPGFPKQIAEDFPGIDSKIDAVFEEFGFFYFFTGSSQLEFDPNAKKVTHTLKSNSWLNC
pIC50 is a log-scale quantity: -log10 of the concentration expressed in molar.

Q. So what's the measured pIC50 for this one? "CNC(=O)[C@@H](NC(=O)[C@H](CC(C)C)C[C@@H](O)CS)C(C)(C)C"
A. 5.43

Q. Try the molecule "CCCCCCC[C@H](CC(=O)CS)C(=O)N[C@H](C(=O)NC)C(C)(C)C"
A. 8.10

Q. Next molecule: "CCCCCCC[C@H](C[C@@H](O)CS)C(=O)N[C@H](C(=O)NC)C(C)(C)C"
A. 6.37

Q. Also need "CNC(=O)[C@@H](NC(=O)[C@H](CC(C)C)C[C@H](O)CS)C(C)(C)C" , thanks.
A. 6.33

Q. Another molecule to check: CCCCCCC[C@H](CC(=O)CS)C(=O)N[C@@H](CC(C)C)C(=O)NC(=O)C(CC(C)C)NCC (stereo partly specified)
A. 7.44

Q. # iterate: "CCCCCCC[C@H](C[C@H](O)CS)C(=O)N[C@H](C(=O)NC)C(C)(C)C"
A. 8.05
